test system: tetrabenazine-induced depression; assay: prevention of tetrabenazine-induced sedation and depression in mice (exploratory activity and ptosis); type: in vivo, Carworth CF1 S female mice; conditions: Table I, orally, 1 hour post-drug, tetrabenazine 32 mg/kg i.p. 30 min after drug, relief from sedation (exploratory activity), 60 min
Structures can show the parent of a compound that is named as a salt.
Provide the recorded ED50 Exploratory for the entries that follow.
Remember to put the unit after the number in your answer.

Give the reported ED50 Exploratory for this compound. CN(C)CCOC12c3ccccc3C3C(c4ccccc41)N32 (centres unmarked) [CH2 CH2 N(CH3)2]
2 mg/kg

Note ED50 Exploratory for the compound shown: NCCOC12c3ccccc3C3C(c4ccccc41)N32 (centres unmarked) [CH2 CH2 NH2]
2 mg/kg

Give ED50 Exploratory for the following compound: CN(C)CCOC12c3ccccc3C3C(c4ccccc41)N32 (centres unmarked) [CH2 CH2 N(CH3)2 . Maleate]
9 mg/kg

Return ED50 Exploratory for the following compound: NCCOC12c3ccccc3C3C(c4ccccc41)N32 (centres unmarked) [CH2 CH2 NH2 . Maleate]
11.8 mg/kg

Give a short answer stating reported ED50 Exploratory for NCCOC12c3ccccc3C3C(c4ccccc41)N32 (centres unmarked) [CH2 CH2 NH2 . Tartate] .
3.3 mg/kg

Cited source for all entries: patent US4123546A
